Origin of values: paper PMC4721142

- Test system: SW982
- assay-info: Synovial toxicity (CellTiter-Glo), with or without TNF-α
experimental-endpoint: Concentration with notable toxicity (µM)
Expressed in µM, but write only the number.

[ask] Requested read-out Concentration with notable toxicity, target or system SW982, entry Cc1ccc(S(=O)(=O)/C=C/C#N)cc1
[reply] 12

----------
- Test system: Normal human articular chondrocytes
- assay-info: Cytotoxicity to chondrogenic pellets (CellTiter-Blue)
The reader will find reported Non-toxic range (Chondrocyte) values listed item by item below.

Consider the reported Non-toxic range (Chondrocyte) for these compounds:
- compound: "COc1ccc(C=CC(=O)Nc2ccccc2C(=O)O)cc1OC"
  Non-toxic range (Chondrocyte): "125000 to 8e+06 µM"
- compound: "COc1cc(/C=C/C(=O)CC(=O)/C=C/c2ccc(O)c(OC)c2)ccc1O"
  Non-toxic range (Chondrocyte): "0.84 to 27 µM"
- compound: "O=C(c1ccccc1)c1ccc2n1CCC2C(=O)O (centres unmarked)"
  Non-toxic range (Chondrocyte): "3.17 to 200 µM"
- compound: "CC1(C)O[C@@H]2C[C@H]3[C@@H]4C[C@H](F)C5=CC(=O)C=C[C@]5(C)[C@@]4(F)[C@@H](O)C[C@]3(C)[C@]2(C(=O)CO)O1 [Fluocinolone, Fluocinolone Acetonide]"
  Non-toxic range (Chondrocyte): "1.56 to 250 µM"
- compound: "Cc1ccc2nc(NCCN)c3ncc(C)n3c2c1"
  Non-toxic range (Chondrocyte): "0.24 to 15.6 µM"
- compound: "N#Cc1c(C2CCNCC2)cc(-c2c(O)cccc2OCC2CC2)nc1N"
  Non-toxic range (Chondrocyte): "0.25 to 16 µM"

[ask] Any idea what Non-toxic range (Chondrocyte) was measured for CNC(=O)[C@H](Cc1c[nH]c2ccccc12)NC(=O)[C@@H](CC(=O)NO)CC(C)C ?
[reply] 0.4 to 25 µM

----------
- assay-info: Comparison of in vitro screens: overlapping effective and nontoxic range;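 also: compares non-toxic ranges in synovial cells and chondrocytes with effective ranges against NFkB, MMP-13 and osteoclasts, giving their overlap as the predicted efficacy range in uM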
- test-parameters: inhibits with minimal or no toxicity to synovium or cartilage; overlapping range if effective in more than one assay
experimental-endpoint: Overlapping effective and nontoxic range

Consider the reported Overlapping effective and nontoxic range for these molecules:
- molecule: "C=CC[C@@H]1/C=C(\\C)C[C@H](C)C[C@H](OC)[C@H]2O[C@@](O)(C(=O)C(=O)N3CCCC[C@H]3C(=O)O[C@H](/C(C)=C/[C@@H]3CC[C@@H](O)[C@H](OC)C3)[C@H](C)[C@@H](O)CC1=O)[C@H](C)C[C@@H]2OC"
  Overlapping effective and nontoxic range: "50 µM"
- molecule: "CC[C@@H]1/C=C(\\C)C[C@H](C)C[C@H](OC)[C@H]2O[C@@](O)(C(=O)C(=O)N3CCCC[C@H]3C(=O)O[C@H](/C(C)=C/[C@@H]3CC[C@H](Cl)[C@H](OC)C3)[C@H](C)[C@@H](O)CC1=O)[C@H](C)C[C@@H]2OC"
  Overlapping effective and nontoxic range: "2.5 to 20 µM"
- molecule: "O=C1C(=Cc2ccccc2F)CNCC1=Cc1ccccc1F"
  Overlapping effective and nontoxic range: "2.5 to 10 µM"
- molecule: "O=C(O)c1cc(/N=N/c2ccc(S(=O)(=O)Nc3ccccn3)cc2)ccc1O"
  Overlapping effective and nontoxic range: "150 to 1600 µM"
- molecule: "[C-]#[O+].[C-]#[O+].[C-]#[O+].[C-]#[O+].[C-]#[O+].[C-]#[O+].[Cl][Ru][Cl].[Cl][Ru][Cl]"
  Overlapping effective and nontoxic range: "20–40+ μM"

[ask] Any idea what Overlapping effective and nontoxic range was measured for CC1(C)O[C@@H]2C[C@H]3[C@@H]4C[C@H](F)C5=CC(=O)C=C[C@]5(C)[C@@]4(F)[C@@H](O)C[C@]3(C)[C@]2(C(=O)CO)O1 [Fluocinolone, Fluocinolone Acetonide] ?
[reply] 3.1 to 100 µM

[ask] Any idea what Overlapping effective and nontoxic range was measured for CC1=C(CC(=O)O)c2cc(F)ccc2/C1=C\c1ccc([S+](C)[O-])cc1 (stereo not shown) ?
[reply] 280 µM

[ask] Any idea what Overlapping effective and nontoxic range was measured for N#Cc1c(C2CCNCC2)cc(-c2c(O)cccc2OCC2CC2)nc1N ?
[reply] 4 (toxicity to synovial cells) μM

[ask] Any idea what Overlapping effective and nontoxic range was measured for Clc1cccc(Cl)c1N=C1NCCN1 ?
[reply] 10 to 100 µM

[ask] Any idea what Overlapping effective and nontoxic range was measured for CC(C)(C)CC(=O)OCC(=O)[C@@]12OC(C)(C)O[C@@H]1C[C@H]1[C@@H]3CCC4=CC(=O)C=C[C@]4(C)[C@@]3(F)[C@@H](O)C[C@@]12C [Triamcinolone hexacetonide] ?
[reply] 62.5 to 3750 µM

[ask] Any idea what Overlapping effective and nontoxic range was measured for CC1=C(CO)C(=O)O[C@@H]([C@@H](C)[C@H]2CC[C@H]3[C@@H]4C[C@H]5O[C@]56[C@@H](O)C=CC(=O)[C@]6(C)[C@H]4CC[C@]23C)C1 ?
[reply] 4.25 to 17 µM

[ask] Any idea what Overlapping effective and nontoxic range was measured for Cc1cnc(NC(=O)C2=C(O)c3ccccc3S(=O)(=O)N2C)s1 ?
[reply] 16 to 32 µM

----------
- System: MMT/MCLT rat model of OA
- assay-info: MMT/MCLT trial 2 histopathology (same doses)
- Type: in vivo
- test-parameters: mean; i.a., tacrolimus 15 ng
The reader will find reported Total joint score values listed item by item below.
Keep it simple and answer with nothing but the number.

Consider the reported Total joint score for these compounds:
- compound: "Clc1cccc(Cl)c1N=C1NCCN1"
  Total joint score: 9.13
- compound: "COc1cc(/C=C/C(=O)CC(=O)/C=C/c2ccc(O)c(OC)c2)ccc1O"
  Total joint score: 9.57
- compound: "CC(C)(C)CC(=O)OCC(=O)[C@@]12OC(C)(C)O[C@@H]1C[C@H]1[C@@H]3CCC4=CC(=O)C=C[C@]4(C)[C@@]3(F)[C@@H](O)C[C@@]12C [Triamcinolone hexacetonide]"
  Total joint score: 11.30

[ask] Any idea what Total joint score was measured for CC1(C)O[C@@H]2C[C@H]3[C@@H]4C[C@H](F)C5=CC(=O)C=C[C@]5(C)[C@@]4(F)[C@@H](O)C[C@]3(C)[C@]2(C(=O)CO)O1 [Fluocinolone, Fluocinolone Acetonide] ?
[reply] 9.80

----------
- Test system: Normal human articular chondrocytes
- assay-info: Cytotoxicity to chondrogenic pellets (CellTiter-Blue)
- test-parameters: male, human, 24 h
experimental-endpoint: Non-toxic range (Chondrocyte)

[ask] Any idea what Non-toxic range (Chondrocyte) was measured for O=C(Nc1cc(C(F)(F)F)cc(C(F)(F)F)c1)c1cc(Cl)ccc1O ?
[reply] 0.4 to 13 µM

----------
- Tested on: MMT/MCLT rat model of OA
- assay-info: MMT/MCLT trial 1 histopathology (same doses)
- Assay type: in vivo
- test-parameters: vs saline group; low or only dose
experimental-endpoint: % decrease, depth ratio zone 2 (%)
Expressed in %, but write only the number.

Consider the reported % decrease, depth ratio zone 2 for these compounds:
- compound: "CN1CC[C@]23c4c5ccc(O)c4O[C@H]2[C@@H](O)C=C[C@H]3[C@H]1C5 [Morphine]"
  experimental-endpoint: "% decrease, depth ratio zone 2"
  val: 42
- compound: "C=CC[C@@H]1/C=C(\\C)C[C@H](C)C[C@H](OC)[C@H]2O[C@@](O)(C(=O)C(=O)N3CCCC[C@H]3C(=O)O[C@H](/C(C)=C/[C@@H]3CC[C@@H](O)[C@H](OC)C3)[C@H](C)[C@@H](O)CC1=O)[C@H](C)C[C@@H]2OC [Tacrolimus]"
  experimental-endpoint: "% decrease, depth ratio zone 2"
  val: 59
- compound: "Clc1cccc(Cl)c1N=C1NCCN1 [Clonidine]"
  experimental-endpoint: "% decrease, depth ratio zone 2"
  val: 14

Now for a further compound.
[ask] Any idea what % decrease, depth ratio zone 2 was measured for CC1=C(CO)C(=O)O[C@@H]([C@@H](C)[C@H]2CC[C@H]3[C@@H]4C[C@H]5O[C@]56[C@@H](O)C=CC(=O)[C@]6(C)[C@H]4CC[C@]23C)C1 [Withaferin A] ?
[reply] 0

----------
- System: Normal human articular chondrocytes
- assay-info: Cytotoxicity to chondrogenic pellets (CellTiter-Blue)
The reader will find reported Non-toxic range (Chondrocyte) values listed item by item below.

- compound: "O=C(O)c1cc(O)c2c(c1)C(=O)c1cccc(O)c1C2=O [Rhein]"
  Non-toxic range (Chondrocyte): "0.625 to 40 µM"
- compound: "Cc1cnc(NC(=O)C2=C(O)c3ccccc3S(=O)(=O)N2C)s1 [Meloxicam]"
  Non-toxic range (Chondrocyte): "125000 to 8e+06 µM"

[ask] Any idea what Non-toxic range (Chondrocyte) was measured for CC1=C(CC(=O)O)c2cc(F)ccc2/C1=C\c1ccc([S+](C)[O-])cc1 (stereo not drawn) [Sulindac] ?
[reply] 4.35 to 280 µM

[ask] Any idea what Non-toxic range (Chondrocyte) was measured for C=CC[C@@H]1/C=C(\C)C[C@H](C)C[C@H](OC)[C@H]2O[C@@](O)(C(=O)C(=O)N3CCCC[C@H]3C(=O)O[C@H](/C(C)=C/[C@@H]3CC[C@@H](O)[C@H](OC)C3)[C@H](C)[C@@H](O)CC1=O)[C@H](C)C[C@@H]2OC [Tacrolimus] ?
[reply] 0.8 to 50 µM

[ask] Any idea what Non-toxic range (Chondrocyte) was measured for Oc1ccc(/C=C/c2cc(O)cc(O)c2)cc1 [Resveratrol] ?
[reply] 3.12 to 200 µM

[ask] Any idea what Non-toxic range (Chondrocyte) was measured for CC[C@@H]1/C=C(\C)C[C@H](C)C[C@H](OC)[C@H]2O[C@@](O)(C(=O)C(=O)N3CCCC[C@H]3C(=O)O[C@H](/C(C)=C/[C@@H]3CC[C@H](Cl)[C@H](OC)C3)[C@H](C)[C@@H](O)CC1=O)[C@H](C)C[C@@H]2OC [Pimecrolimus] ?
[reply] 0.625 to 40 µM
